// values below are reported inhibition at 10 µM
Target: NA re-uptake (Rattus norvegicus, UniProt Q63380)
Construct: synaptosomes are freshly isolated from rat brain areas; from tissue; host or cells: rat brain synaptosomes (P2 fraction), hypothalamus
Sequence (Q63380 1-617): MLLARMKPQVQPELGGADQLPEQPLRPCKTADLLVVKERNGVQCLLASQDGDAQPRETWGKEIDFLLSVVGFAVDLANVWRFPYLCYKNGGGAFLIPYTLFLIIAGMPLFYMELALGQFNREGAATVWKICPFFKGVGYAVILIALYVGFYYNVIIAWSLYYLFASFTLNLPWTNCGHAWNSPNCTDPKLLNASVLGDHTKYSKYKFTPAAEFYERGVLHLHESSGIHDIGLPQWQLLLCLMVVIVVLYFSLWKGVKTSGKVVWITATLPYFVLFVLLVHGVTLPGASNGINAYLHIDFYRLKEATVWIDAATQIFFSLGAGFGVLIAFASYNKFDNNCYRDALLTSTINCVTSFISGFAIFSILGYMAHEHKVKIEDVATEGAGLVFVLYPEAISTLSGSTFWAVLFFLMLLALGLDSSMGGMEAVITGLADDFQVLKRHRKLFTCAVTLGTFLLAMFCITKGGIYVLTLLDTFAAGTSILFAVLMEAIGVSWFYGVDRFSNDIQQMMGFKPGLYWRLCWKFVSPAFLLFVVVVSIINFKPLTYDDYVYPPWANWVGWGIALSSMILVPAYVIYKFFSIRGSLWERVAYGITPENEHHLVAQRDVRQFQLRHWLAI
Assay: Inhibition of NA re-uptake in rat brain synaptosomes (P2 fraction, hypothalamus)
Format: biochemical
Conditions: 10 μmol/l
From the text: a) Investigations of the Inhibition of the Re-uptake of 5-HT and NA In order to be able to carry out these in vitro studies, synaptosomes are freshly isolated from rat brain areas. […] These vesicular particles are isolated from the hypothalamus for the NA re-uptake and from the medulla +pons region of male rat brains for the 5-HT re-uptake. The IC50 values were obtained with the aid of the “Figure P” computer program (version 6.0, Biosoft, Cambridge, England). […]
Where a name gives a salt, the structure may show the parent alone.
parameter: inhibition at 10 µM (%)

{"molecule": "CN(C)C[C@@H]1CCCC[C@@H]1c1cccnc1 (relative stereo) [Example 6, hydrochloride]", "value.observed": 25}
{"molecule": "CCCN(CCC)CC1=C(c2cccnc2)CCCC1.Cl [Example 65, hydrochloride]", "value.observed": -8}
{"molecule": "CN(C)C[C@@H]1CCCCC[C@H]1c1cccnc1 (relative stereo) [Example 27, hydrochloride]", "value.observed": 54}
{"molecule": "COc1cncc(C2=CCCCCCC2CN(C)C)c1 (centres unmarked) [Example 73, hydrochloride]", "value.observed": 55}
{"molecule": "CN(C)CC1=C(c2cccnc2)CCCC1.Cl.Cl [Example 1, dihydrochloride]", "value.observed": 35}
{"molecule": "COc1cncc(C2=C(CN(C)C)CCCC2)c1 [Example 54, hydrochloride]", "value.observed": 17}
{"molecule": "CN(C)CC1CCCCCC=C1c1ccc(Cl)nc1 (centres unmarked) [Example 71, hydrochloride]", "value.observed": 77}
{"molecule": "COc1cncc(C2=C(CN(C)C)CCCCCC2)c1 [Example 74, hydrochloride]", "value.observed": 56}
